Reference source: patent US7998971B2

- Test system: human neural stem cells (hNSCs)
- protocol_notes: Neuronal differentiation of human neural stem cells (TUJ-1 staining, concentration response curves)
- Type: cell-based
- measurement_setup: Homo sapiens, Neural stem cell; agent alone; hNSCs; extrapolated; read-out: EC50 of neuronal differentiation, agent used alone, estimated by extrapolation of the observed data
value_kind: EC50 (µM)
Number only, in µM; omit the unit.

Ask | Recorded EC50 for `C[C@]12CC[C@@H]3c4ccc(O)cc4CC[C@H]3[C@@H]1CC[C@@H]2O` with human neural stem cells (hNSCs), please?
Reply | 4.4
